biological target: EeAChE PAS (Electrophorus electricus, UniProt O42275); construct: purchased Sigma-Aldrich type VI-S; experiment: biochemical; type: binding; settings: compound 3 µM; EeAChE 7 µM, PI 8 µM; means ± SEM (n = 3); read-out: PI Displacement, 3 µM
Sequence (O42275 24-633): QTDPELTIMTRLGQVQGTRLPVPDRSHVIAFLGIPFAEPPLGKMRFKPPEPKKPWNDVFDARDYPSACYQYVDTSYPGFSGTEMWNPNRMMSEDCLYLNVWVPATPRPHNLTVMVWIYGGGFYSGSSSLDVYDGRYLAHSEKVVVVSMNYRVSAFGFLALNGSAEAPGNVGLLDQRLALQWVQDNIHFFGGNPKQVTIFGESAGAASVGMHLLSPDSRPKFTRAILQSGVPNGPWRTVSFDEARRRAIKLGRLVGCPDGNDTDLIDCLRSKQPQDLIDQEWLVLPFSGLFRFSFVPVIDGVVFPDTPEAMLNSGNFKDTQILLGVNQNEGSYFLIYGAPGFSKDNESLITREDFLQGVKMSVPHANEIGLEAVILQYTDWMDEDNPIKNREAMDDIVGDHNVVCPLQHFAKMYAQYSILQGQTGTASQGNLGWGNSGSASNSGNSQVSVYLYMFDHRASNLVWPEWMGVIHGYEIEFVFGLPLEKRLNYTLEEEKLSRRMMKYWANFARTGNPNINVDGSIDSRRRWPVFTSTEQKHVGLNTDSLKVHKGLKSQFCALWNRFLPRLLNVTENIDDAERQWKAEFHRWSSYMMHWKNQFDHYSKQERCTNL
Value kind: inhibition at 3 µM (%)
Quick note: give the figure in %, leave out the unit.

Solved cases below.
Compound	inhibition at 3 µM, %
COc1ccc2c(c1)c1c(n2CCC(=O)N2c3ccc(N(C)C)cc3Sc3cc(N(C)C)ccc32)CCCC1 [Compound 4d]	13.4
Cc1ccc2c(c1)c1c(n2CCC(=O)N2c3ccc(N(C)C)cc3Sc3cc(N(C)C)ccc32)CCCCCC1 [Compound 4n]	16.7
CN(C)c1ccc2c(c1)Sc1cc(N(C)C)ccc1N2C(=O)CCn1c2c(c3cc(OC(F)(F)F)ccc31)CCCC2 [Compound 4h]	19.1

In: # returns recorded inhibition at 3 µM (system: EeAChE PAS (Electrophorus electricus, UniProt O42275)) for CN(C)c1ccc2c(c1)Sc1cc(N(C)C)ccc1N2C(=O)CCn1c2c(c3ccccc31)CCCCCC2 [Compound 4m]
Out: 17.3

In: # returns recorded inhibition at 3 µM (system: EeAChE PAS (Electrophorus electricus, UniProt O42275)) for CN(C)c1ccc2c(c1)Sc1cc(N(C)C)ccc1N2C(=O)CCn1c2c(c3ccccc31)CCCC2 [Compound 4b]
Out: 12.6

In: # returns recorded inhibition at 3 µM (system: EeAChE PAS (Electrophorus electricus, UniProt O42275)) for CN(C)c1ccc2c(c1)Sc1cc(N(C)C)ccc1N2C(=O)CCn1c2c(c3cc(F)ccc31)CCCC2 [Compound 4f]
Out: 14.4

In: # returns recorded inhibition at 3 µM (system: EeAChE PAS (Electrophorus electricus, UniProt O42275)) for Cc1ccc2c(c1)c1c(n2CCC(=O)N2c3ccc(N(C)C)cc3Sc3cc(N(C)C)ccc32)CCCC1 [Compound 4c]
Out: 14.9
